# target.under.test: T1, 4H2760-bA
# T1 chain: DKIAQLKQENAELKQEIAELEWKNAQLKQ
# measurement.notes: two-hybrid library CCNG1;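 also: natural log of median RNA to DNA barcode read ratio; higher means stronger binding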
value.type: interaction score

* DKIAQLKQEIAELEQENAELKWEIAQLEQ [4H2585-bA] | 0.582
* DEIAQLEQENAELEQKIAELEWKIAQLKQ [4H166-bA] | 1.38
* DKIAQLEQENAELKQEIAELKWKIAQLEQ [4H2253-bA] | 0.778
* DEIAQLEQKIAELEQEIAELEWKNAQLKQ [4H264-bA] | -0.475
